# Tested on: Caco-2
# PROCEDURE TEXT: Caco-2 permeability
# Type: in vitro ADME
# TEST CONDITIONS: A–B
RECORDED METRIC: Caco-2 Permeability Papp (A–B)

Consider the worked cases shown below.
Cc1ccc(NS(=O)(=O)c2cc3c(cc2F)NC(=O)CC3)cc1Cl | 6.22 10^−6, cm/s
O=C1CCc2cc(S(=O)(=O)Nc3ccc(F)c(Cl)c3)c(F)cc2N1 | 9.38 10^−6, cm/s
Cc1ccc(NS(=O)(=O)c2ccc3c(c2)CCC(=O)N3)cc1C | 14.9 10^−6, cm/s
Cc1ccc(NS(=O)(=O)c2cc3c(cc2N[C@@H](C)CO)NC(=O)CC3)cc1Cl | 1.13 10^−6, cm/s

Would you kindly look at the next entry?
*Q* Requested read-out: Caco-2 Permeability Papp (A–B). Entry: C[C@@H](CO)Nc1cc2c(cc1S(=O)(=O)Nc1ccc(F)c(Cl)c1)CCC(=O)N2
*A* 1.61 10^−6, cm/s
